- Assayed target: CCR1 (Homo sapiens, UniProt P32246)
- Construct: host or cells: Non-adherent cells
- Sequence (P32246 whole entry): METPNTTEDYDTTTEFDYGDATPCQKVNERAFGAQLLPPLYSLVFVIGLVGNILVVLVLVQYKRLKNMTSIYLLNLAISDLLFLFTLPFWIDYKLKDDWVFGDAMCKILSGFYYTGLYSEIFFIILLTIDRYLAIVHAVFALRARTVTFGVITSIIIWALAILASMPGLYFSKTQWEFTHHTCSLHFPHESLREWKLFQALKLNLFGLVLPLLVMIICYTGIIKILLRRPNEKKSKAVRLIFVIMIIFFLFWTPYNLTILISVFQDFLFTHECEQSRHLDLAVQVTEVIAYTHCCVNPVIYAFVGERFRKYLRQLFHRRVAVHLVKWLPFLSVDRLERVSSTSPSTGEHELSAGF
- Assay name: Calcium flux in CCR1 transfected cells, Method B (Calcium 4 dye, HAMAMATSU FDSS6000), MIP-1alpha at EC80
- Assay type: cell-based
- Conditions used: cells stably expressing recombinant CCR1 and G-alpha-16, 30 minutes at 37 C then 30 minutes at room temperature
pIC50: −log10 of the molar value.
Category | rule: reported pIC50 within range, see label 0 (below 7), label 1 (7 to below 8), label 2 (8 or more)

CC[C@H](NC(=O)c1nncc2c1cnn2-c1ccc(F)cc1)c1ccc(S(C)(=O)=O)nc1 label 1
CS(=O)(=O)c1cc(CNC(=O)c2cncc3c2ccn3-c2ccc(F)cc2)ccn1 label 0
C[C@H](NC(=O)c1cncc2c1ccn2-c1ccc(F)cc1)c1ccnc(S(C)(=O)=O)c1 label 1
CC[C@H](NC(=O)c1nccn2c(-c3ccc(F)cc3)ncc12)c1ccnc(S(C)(=O)=O)c1 label 1
CC(C)(NC(=O)c1nccn2c(-c3ccc(F)cc3)ncc12)c1ccnc(Br)c1 label 0

[ask] Kindly state the category for this molecule: `CC[C@H](NC(=O)c1cccn2c(-c3ccc(F)cc3)cnc12)c1ccc(Br)nc1`
[reply] label 0

[ask] Kindly state the category for this molecule: `CC[C@H](NC(=O)c1cncc2c1ccn2-c1ccc(F)cc1)c1cnc(S(C)(=O)=O)s1`
[reply] label 1

[ask] Kindly state the category for this molecule: `C[C@H](NC(=O)c1nncc2c1cnn2-c1ccc(F)cc1)c1ccnc(S(C)(=O)=O)c1`
[reply] label 1

[ask] Kindly state the category for this molecule: `CCC[C@H](NC(=O)c1nccn2c(-c3ccc(F)cc3)ncc12)c1ccnc(S(C)(=O)=O)c1`
[reply] label 2

[ask] Kindly state the category for this molecule: `CS(=O)(=O)c1cccc(CNC(=O)c2cc(C#N)cc3c2ccn3-c2ccc(F)cc2)c1`
[reply] label 2
